assay explanation: Acute toxicity (LD50, Litchfield-Wilcoxon method)
condition details: mouse, in vivo; oral administration, male mice; read-out: LD50 Oral administration
# Lookup of reported LD50 keyed by entry

{"columns": ["compound", "readout label", "reported"],
 "data": [
  ["CCC(C=CC(C)C1CCC2C3C(O)C=C4CC(OC5OC(CO)C(O)C(O)C5O)CCC4(C)C3CCC12C)C(C)C (stereo not shown)", "LD50", "> 12000 mg/kg"],
  ["CCC(CCC(C)C1CCC2C3C(O)C=C4CC(OC5OC(COC(C)=O)C(OC(C)=O)C(OC(C)=O)C5OC(C)=O)CCC4(C)C3CCC12C)C(C)C (stereo not shown)", "LD50", "> 12000 mg/kg"],
  ["CC(=O)OCC1OC(OC2CCC3(C)C(=CC(=O)C4C3CCC3(C)C(C(C)CCCC(C)C)CCC43)C2)C(OC(C)=O)C(OC(C)=O)C1OC(C)=O (stereo not shown)", "LD50", "> 12000 mg/kg"]
]}

Query compound follows.
## Task Consider the compound CC(C)CCCC(C)C1CCC2C3C(=O)C=C4CC(OC5OC(CO)C(O)C(O)C5O)CCC4(C)C3CCC12C [Compound 8, (7-Ketocholesteryl)-β-D-glucopyranoside] and give its measured LD50.
## Result > 12000 mg/kg
